Origin of the recorded values: ChEMBL document CHEMBL1201862

# Tested on: SK-MEL-28
# Protocol summary: NCI tumour cell line growth inhibition, 48 h
Activity calls are given as the source filed them. Cut-off read from the data, not from the text of the source: active = GI50 up to about 1.1 µM and inactive = higher.
Select the correct class. Options are 1 (active), 0 (inactive) and nothing else.

Task: Hey, what did the test say about CO/S(=N/S(=O)(=O)c1ccccc1)c1ccccc1[N+](=O)[O-] (stereo not given) ?
Output: 0

Task: Hey, what did the test say about N/C(=N/c1ccc(O)cc1)S(=O)O ?
Output: 0

Task: Hey, what did the test say about CC(C)(C)/N=C1/CC(C)(C)c2ccccc2/C(=N\c2ccccc2)S1 ?
Output: 0

Task: Hey, what did the test say about CC[C@@]1(O)C[C@H](OC2CC(N(C)C)C(OC3CC(O)C(OC4CC(O)C(O)C(C)O4)C(C)O3)C(C)O2)c2c(cc3c(c2O)C(=O)c2c(O)ccc(O)c2C3=O)[C@H]1C(=O)OC (stereo not given in full) ?
Output: 1

Task: Hey, what did the test say about CCCCCCCCCCCCCCCCCC(=O)O[C@H](COC(=O)CCCCCCCCCCC)COC(=O)CCCCCCCCCCCCCCC ?
Output: 0

Task: Hey, what did the test say about O=C(/C=C/c1ccccc1)C[C@@H](O)C[C@@H]1CC=CC(=O)O1 ?
Output: 0

Task: Hey, what did the test say about CC(=O)Nc1ccc(/C=C/c2ccc(NC(=O)Nc3ccc(/C=C/c4ccc(NC(C)=O)cc4S(=O)(=O)O)c(S(=O)(=O)O)c3)cc2S(=O)(=O)O)c(S(=O)(=O)O)c1 ?
Output: 0

Task: Hey, what did the test say about COC(OC)c1cc2c(cc1C=O)OCO2 ?
Output: 0

Task: Hey, what did the test say about c1ccc(SCCCC(Sc2ccccc2)Sc2ccccc2)cc1 ?
Output: 0

Task: Hey, what did the test say about C/C(=N\Nc1nc2ccccc2o1)c1ncccn1 ?
Output: 1
